# assayed-target: T1, human CD24 (human, UniProt P25063 27-59, heavily glycosylated, GPI-anchored (as described in the background))
# T1 construct: whole, on cells; Target of all cell-based FACS assays; also called hCD24; Cluster of differentiation 24
# T1 chain (looked up): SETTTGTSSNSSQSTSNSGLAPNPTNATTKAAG
# method-notes: FACS, A549 cells
quantity-name: Max MFI
API doc: respond with a numeric literal and nothing else, no unit.

Answered examples (2):
INSERT INTO assay_data (binder, quantity_name, test_value) VALUES
  ('73H5-1G2 (antibody, V domains shown, mouse monoclonal antibody) VH: QVQLKQSGPGLVQPSQSLSITCTVSGFSLTNYGVHWIRQSPGKGLEWLGVIWRGGSTDYNAAFMSRLSITKDNSKSQVFFQMNSLQAADTAIYYCANNYGYDCFAYWGQGTLVTVSA VL: DVQITQSPSYLAASPGETITINCRASKSIIKYLAWYQEKPGKTNKLLIYSGSTLQSGIPSRFSGSGSGTDFTLTITSLEPEDFAMYYCQQHNEYPLTFGAGTRLELK', 'Max MFI', 5700),
  ('56A7E3 (antibody, V domains shown, mouse monoclonal antibody) VH: EVQLQQSGPELVKPGASVKIPCKASGYTFTAYNMDWVKQSHGMSLEWIGDINPINGGTIYNQNFEGKATLTVDKSSSTAYLELRSLTSEDTAVYYCARRGSYYYGSSHYALDFWGQGTSVSVSS VL: DIQMTQITSSLSASLGDRVTITCRASQDISNYLNWYQQKPDGTVKLLIYYTSRLLSGVPSRFSGSGSGTDYSLTISNLEQEDIATYFCQQDHTLPRTFGGGTKLEIR', 'Max MFI', 3320);

Below: the item to evaluate.
Sure, the documented Max MFI for 110D4G4 (antibody, V domains shown, mouse monoclonal antibody; also called mAb-110D4G4) VH: EVQLQQSGPGLVKPGASVKISCRASGYLFTGYYMNWVKQSPEKSLEWIGEINPNTGDPRYDQKFKAKATLTVDRSSSTAYMHLKSLTSEDSAVYFCARRDYGTSLDYWGQGTTLTVTS VL: DVQITQSPSYLAASPGETITINCRASKSISKYLAWYQEKPGKTNKLLIYSGSTLQSGIPSRFSGSGSGSDFTLTISSLEPEDFAMYYCQQHNEYPLTFGAGTKLELK is 18400

The values you see were collected from patent US20240052052A1.
